- MEASUREMENT TARGET: FGFR4 (h) (Homo sapiens, UniProt P22455)
- Sequence (P22455 22-802): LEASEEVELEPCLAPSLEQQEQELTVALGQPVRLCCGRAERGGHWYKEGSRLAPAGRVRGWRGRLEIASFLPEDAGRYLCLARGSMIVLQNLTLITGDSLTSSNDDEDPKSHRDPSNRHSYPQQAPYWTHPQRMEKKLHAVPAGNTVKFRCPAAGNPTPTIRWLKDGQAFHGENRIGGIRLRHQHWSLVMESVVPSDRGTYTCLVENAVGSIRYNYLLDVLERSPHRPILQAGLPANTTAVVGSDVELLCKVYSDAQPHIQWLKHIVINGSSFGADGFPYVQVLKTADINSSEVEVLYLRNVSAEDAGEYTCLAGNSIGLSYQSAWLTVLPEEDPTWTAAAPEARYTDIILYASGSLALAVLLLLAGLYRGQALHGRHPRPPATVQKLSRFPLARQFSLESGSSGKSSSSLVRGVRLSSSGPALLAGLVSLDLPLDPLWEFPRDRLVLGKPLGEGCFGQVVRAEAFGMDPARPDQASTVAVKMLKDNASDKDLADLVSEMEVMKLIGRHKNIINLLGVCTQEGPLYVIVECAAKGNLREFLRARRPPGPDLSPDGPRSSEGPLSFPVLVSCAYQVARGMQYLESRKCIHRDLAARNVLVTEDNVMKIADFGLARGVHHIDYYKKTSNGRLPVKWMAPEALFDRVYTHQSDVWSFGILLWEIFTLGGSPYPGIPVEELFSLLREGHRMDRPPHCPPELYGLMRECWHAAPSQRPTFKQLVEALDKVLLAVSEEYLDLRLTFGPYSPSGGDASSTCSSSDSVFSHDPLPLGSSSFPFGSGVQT
- EXPERIMENT SUMMARY: FGFR4 (enzymatic assay), TR-FRET
- Format: biochemical
- EXPERIMENTAL SETUP: FGFR 4 pIC50, enzymatic assay; average values if tested multiple times
Counter-ions that a name gives are not always drawn.
METRIC NAME: log10(IC50) (log10 of the value in nM)

MOLECULE	OBSERVED MEASUREMENT
COc1cc(OC)c(F)c(N(Cc2ncc[nH]2)c2ccc3ncc(-c4cnn(C)c4)nc3n2)c1 [23-Sulfate salt]	0.10
COc1cc(OC)c(Cl)c(N(Cc2ncc[nH]2)c2ccc3ncc(-c4cnn(C)c4)nc3n2)c1	0.48
CNCCN(c1ccc2ncc(-c3cnn(C)c3)nc2n1)c1c(F)ccc(OC)c1Cl	1.59
COc1cc(OC)c(F)c(N(Cc2cnccn2)c2ccc3ncc(-c4cnn(C)c4)nc3n2)c1F	2.00
COc1cc(/N=c2\ccc3ncc(-c4cnn(C)c4)nc3n2CC2CCC(=O)N2)c(F)c(OC)c1 (stereo not drawn) [Compound 53]	0.52
COc1cc(OC)cc(N(CC2CCC(=O)N2)c2ccc3ncc(-c4cnn(C)c4)nc3n2)c1 (stereo not drawn) [Compound 54]	1.24
COc1cc(OC)c(F)c(N(Cc2ncc[nH]2)c2ccc3ncc(-c4cnn(C)c4)nc3n2)c1 [Compound 23]	0.00
COc1ccc(F)c(N(Cc2ncc[nH]2)c2ccc3ncc(-c4cnn(C)c4)nc3n2)c1Cl	1.18
CNCCN(c1ccc2ncc(-c3cnn(C)c3)nc2n1)c1c(Cl)c(OC)cc(OC)c1Cl	1.85
COc1cc(OC)cc(N(Cc2ncc[nH]2)c2ccc3ncc(-c4cnn(C)c4)nc3n2)c1 [24-hydrochloric acid salt]	0.08
COc1cc(/N=c2\ccc3ncc(-c4cnn(C)c4)nc3n2CCNC(C)C)c(F)c(OC)c1	1.19
COc1cc(OC)c(F)c(N(c2ccc3ncc(-c4cnn(C)c4)nc3n2)C(CO)COC(C)C)c1 (single isomer, unassigned)	2.33
COc1cc(OC)c(F)c(N(Cc2cc[nH]n2)c2ccc3ncc(-c4cnn(C)c4)nc3n2)c1	-0.11
COc1cc(OC)cc(N(CC(O)C(F)(F)F)c2ccc3ncc(-c4cnn(C)c4)nc3n2)c1 (stereo not drawn) [Compound 8]	0.50
COc1cc(OC)c(Cl)c(/N=c2\ccc3ncc(-c4cnn(C)c4)nc3n2CC2CCC(=O)N2)c1Cl (single isomer, unassigned)	1.59
COCC(O)CN(c1cc(OC)cc(OC)c1)c1ccc2ncc(-c3cnn(C)c3)nc2n1 (stereo not drawn)	0.80
COc1cc(OC)c(F)c(N(CC2CCC(=O)N2)c2ccc3ncc(-c4cnn(C)c4)nc3n2)c1F (stereo not drawn) [Compound 48]	0.34
COc1cc(O)cc(N(Cc2ncc[nH]2)c2ccc3ncc(-c4cnn(C)c4)nc3n2)c1F	-0.27
COc1cc(OC)cc(N(CC2CCC(=O)N2)c2ccc3ncc(-c4cnn(C)c4)nc3n2)c1 (stereo not drawn) [Compound 49]	0.80
COc1cc(OC)c(Cl)c(N(Cc2ncc[nH]2)c2ccc3ncc(-c4cnn(C)c4)nc3n2)c1Cl	0.89
COc1cc(OC)c(F)c(N(Cc2ncccn2)c2ccc3ncc(-c4cnn(C)c4)nc3n2)c1F	1.30
CNCCn1/c(=N/c2c(F)cccc2F)ccc2ncc(-c3cnn(C)c3)nc21	3.45
COc1cc(OC)c(F)c(N(CCO)c2ccc3ncc(-c4cnn(C)c4)nc3n2)c1	0.26
COc1cc(OC)c(F)c(N(Cc2ncc[nH]2)c2ccc3ncc(-c4cnn(C)c4)nc3n2)c1 [23-fumarate salt]	-0.10
COc1cc(OC)cc(N(Cc2nc[nH]n2)c2ccc3ncc(-c4cnn(C)c4)nc3n2)c1	0.21
COc1cc(OC)c(F)c(/N=c2\ccc3ncc(-c4cnn(C)c4)nc3n2CCN)c1F	0.30
COc1cc(OC)cc(N(Cc2ncc[nH]2)c2ccc3ncc(-c4cnn(C)c4)nc3n2)c1 [24-sulphate salt]	-0.12
COc1cc(OC)c(F)c(N(CC(O)COC(C)C)c2ccc3ncc(-c4cnn(C)c4)nc3n2)c1F (stereo not drawn) [Compound 63]	0.78
COCC(O)CN(c1ccc2ncc(-c3cnn(C)c3)nc2n1)c1c(F)c(OC)cc(OC)c1F (stereo not drawn)	0.51
COc1cc(/N=c2\ccc3ncc(-c4cnn(C)c4)nc3n2CC2COC(=O)N2)c(F)c(OC)c1 (single isomer, unassigned)	0.31
